measurementTarget: T1, MPDZ_10, O75970
T1 sequence (O75970 1624-1722, limits assumed, looked up): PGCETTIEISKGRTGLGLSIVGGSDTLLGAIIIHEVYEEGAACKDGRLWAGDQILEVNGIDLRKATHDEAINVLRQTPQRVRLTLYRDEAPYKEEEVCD
protocolSummary: holdup assay
Design: key: below the threshold = too weak to quantify, mostly under pKd 3.1 to 4
conditionNotes: plain residues with an end cap or a label only (N-terminal biotin on a linker: ado-ado)
recordedEndpoint: pKd

{"columns": ["binder", "measValue"],
 "data": [
  ["PYPTADHMLA [JUP, P14923]", "below the threshold"],
  ["QRPYRRGSEI [KCNJ18, B7U540]", "below the threshold"],
  ["LAHVKHKEQI [AQP3, Q92482]", "below the threshold"],
  ["NTLNRKTTPV [CACNG8, Q8WXS5]", 3.84],
  ["ARGPPRESEV [FAM110D, Q8TAY7]", "below the threshold"],
  ["SRSVVESDEL [MYPN, Q86TC9]", "below the threshold"],
  ["GIKKITSTAL [RPS6KA3, P51812]", 3.59],
  ["MQHQRTHTRV [ZSCAN30, Q86W11]", 3.7],
  ["ARESQKVSHV [FAM110B, Q8TC76]", 4.08],
  ["DGVNEKVSCV [HTR2A, P28223]", 4.19],
  ["EDPRVEVTQF [SLC22A9, Q8IVM8]", "below the threshold"],
  ["PSHPRLQTHV [KIRREL2, Q6UWL6]", "below the threshold"],
  ["IDESKKEWLI [CNTNAP2, Q9UHC6]", "below the threshold"],
  ["GEDRSPPTAL [MKNK1, Q9BUB5]", "below the threshold"],
  ["AAVENKVTDL [PLXNB1, O43157]", "below the threshold"],
  ["SPDRDRESIV [SCN5A, Q14524]", 3.55]
]}
